# measured-on: HER2 (Homo sapiens, UniProt P04626)
# Sequence (P04626 23-1255): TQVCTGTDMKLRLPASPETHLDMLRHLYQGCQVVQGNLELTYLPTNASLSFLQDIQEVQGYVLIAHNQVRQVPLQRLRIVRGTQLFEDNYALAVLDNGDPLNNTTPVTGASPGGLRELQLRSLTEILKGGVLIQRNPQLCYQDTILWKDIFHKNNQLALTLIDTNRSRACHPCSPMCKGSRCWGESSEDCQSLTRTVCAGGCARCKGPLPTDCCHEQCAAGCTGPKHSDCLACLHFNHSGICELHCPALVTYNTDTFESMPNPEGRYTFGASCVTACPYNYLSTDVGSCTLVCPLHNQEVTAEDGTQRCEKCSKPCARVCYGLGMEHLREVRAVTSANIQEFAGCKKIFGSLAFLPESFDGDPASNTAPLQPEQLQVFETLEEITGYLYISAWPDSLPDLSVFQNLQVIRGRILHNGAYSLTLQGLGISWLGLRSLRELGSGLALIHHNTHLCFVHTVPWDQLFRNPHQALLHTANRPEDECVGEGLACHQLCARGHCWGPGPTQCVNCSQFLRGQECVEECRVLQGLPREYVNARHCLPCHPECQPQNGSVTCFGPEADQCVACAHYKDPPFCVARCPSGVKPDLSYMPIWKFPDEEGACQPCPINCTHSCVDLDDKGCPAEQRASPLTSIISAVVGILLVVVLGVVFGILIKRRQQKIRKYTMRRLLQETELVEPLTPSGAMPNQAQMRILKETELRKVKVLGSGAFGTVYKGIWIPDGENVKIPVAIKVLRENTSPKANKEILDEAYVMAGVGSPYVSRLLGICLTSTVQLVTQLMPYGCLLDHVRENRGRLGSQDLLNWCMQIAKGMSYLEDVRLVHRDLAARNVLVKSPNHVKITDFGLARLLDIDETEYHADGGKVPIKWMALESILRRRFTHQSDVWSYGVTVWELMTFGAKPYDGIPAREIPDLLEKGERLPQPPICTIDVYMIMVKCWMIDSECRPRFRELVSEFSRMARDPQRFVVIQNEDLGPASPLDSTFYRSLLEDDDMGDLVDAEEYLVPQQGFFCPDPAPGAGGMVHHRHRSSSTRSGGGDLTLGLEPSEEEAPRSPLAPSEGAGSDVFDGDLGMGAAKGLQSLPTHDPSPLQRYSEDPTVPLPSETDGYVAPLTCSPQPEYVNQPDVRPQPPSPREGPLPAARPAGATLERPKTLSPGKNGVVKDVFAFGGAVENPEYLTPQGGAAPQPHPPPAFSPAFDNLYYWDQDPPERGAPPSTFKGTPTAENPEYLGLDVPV
attribute-measured: Kd (nM)
Give the value in nM but do not write nM after it.

Determine its reported Kd: COc1cc2ncnc(Nc3cccc(Cl)c3F)c2cc1OCCON1CCN(C)CC1 [Compound 15] 21

---

# measured-on: CYP1A2 (Homo sapiens, UniProt P05177)
# Sequence (P05177 whole entry): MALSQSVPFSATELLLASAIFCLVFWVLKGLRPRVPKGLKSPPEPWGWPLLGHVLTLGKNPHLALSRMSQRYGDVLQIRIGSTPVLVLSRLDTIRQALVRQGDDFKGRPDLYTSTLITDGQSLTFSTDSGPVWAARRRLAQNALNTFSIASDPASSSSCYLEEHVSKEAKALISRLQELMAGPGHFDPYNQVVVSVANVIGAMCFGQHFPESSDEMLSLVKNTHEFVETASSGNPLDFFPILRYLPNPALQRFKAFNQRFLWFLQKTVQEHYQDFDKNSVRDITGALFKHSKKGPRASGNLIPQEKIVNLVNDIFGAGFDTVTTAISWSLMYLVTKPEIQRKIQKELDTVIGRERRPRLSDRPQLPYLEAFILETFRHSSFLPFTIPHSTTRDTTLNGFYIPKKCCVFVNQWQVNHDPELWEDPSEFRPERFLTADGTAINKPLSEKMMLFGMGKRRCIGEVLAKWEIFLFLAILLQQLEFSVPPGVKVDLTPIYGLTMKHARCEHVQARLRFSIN
# protocol-description: Human CYP450 inhibition in human liver microsomes, CYP1A2
# Type: in vitro ADME
# run-conditions: pooled human liver microsomes, probe phenacetin (40 μM), O-demethylation
attribute-measured: IC50 at 20 min

Let me know recorded IC50 at 20 min for "COc1cc2ncnc(Nc3cccc(Cl)c3F)c2cc1OCCON1CCN(C)CC1" , thanks. > 30 µM
